# experimental details: Acute toxicity in Kunming mouse assessed as survival rate at 80 ug/kg, ip administered once daily for 14 days relative to control
# Type: organism-based
# condition notes: in vivo, 0.08 mg/kg, time 14 day, read-out: Activity
Residues, ends and D or L forms follow the SMILES beside them.
measurement type: survival at 336 h (%)
I only need the number, in %, no unit after it.

Incoming: Given the entry CC(C)C[C@H](NC(=O)CNC(=O)[C@H](Cc1ccccc1)NC(=O)[C@H](CCCNC(=N)N)NC(=O)[C@H](CCCNC(=N)N)NC(=O)CNC(=O)[C@H](Cc1cnc[nH]1)NC(=O)[C@H](CCCNC(=N)N)NC(=O)CNC(=O)[C@@H](NC(=O)[C@H](C)NC(=O)[C@@H](N)CO)C(C)C)C(=O)N[C@@H](CCCNC(=N)N)C(=O)N[C@@H](CCCCN)C(=O)N[C@@H](Cc1cnc[nH]1)C(=O)N[C@@H](CCCNC(=N)N)C(=O)N[C@@H](CCCCN)C(=O)N[C@@H](Cc1cnc[nH]1)C(=O)O (H-SAVGRHGRRFGLRKHRKH-OH) , report its measured survival at 336 h.
Outgoing: 70

Data provenance is ChEMBL document CHEMBL5356933.
